Reference for the values: patent US20210261937

Listed proteins paired with reported cleavage of the SUMO fusion protein
# studyTarget: bdSUMO Mut12-MBP fusion protein
Give the quantity in % cleavage, number only.

[
  {
    "protein": "bdSENP1^MutK (protein) PFVPLTDEDEDNVRHALGGRKVSETLSVHEASQIVITREILQCLNDKEWLNDEVINLYLELLKERELREPNKFLKCHFFNTFFYKKLINGGYDYKSVRVWTTGRKLGYNLIDCDKIFVPIHKDVHWCLAVINIKEKKFQYLDSLGYMDMKALRILAKYLVDEVKDKSGKQIDVHAWKQEGVQNLPLQENGWDCGMFMLKYIDFYSRDMELVFGQKHMSYFRRRTAKEILDLKAG",
    "cleavage of the SUMO fusion protein [% cleavage]": 100
  }
]

Next, consider the following protein.
# query: cleavage of the SUMO fusion protein of entry bdSENP1^MutB protease (protein) PFVPLTDEDEDNVRHALGGRKRSETLSVHEASSIVITREILQCLNDKEWLNDEVINLYLELLKERELREPNKFLKCHFFNTFFYKKLINGGYDYKSVREWTTKRKLGYNLIDCDKIFVPIHKDVHWCLAVINIKEKKFQYLDSLGYMDMKALRILAKYLVDEVKDKSGKQIDVHAWKQEGVQNLPLQENGWDCGMFMLKYIDFYSRDMELVFGQKHMSYFRRRTAKEILDLKAG
100
